Entry source: patent US20100166764A1

Biological target: T1, mature myostatin (human, murine, rat, chicken, turkey, …, UniProt O08689 268-376 (mouse entry))
T1 construct: also called growth differentiation factor-8; GDF-8
T1 sequence: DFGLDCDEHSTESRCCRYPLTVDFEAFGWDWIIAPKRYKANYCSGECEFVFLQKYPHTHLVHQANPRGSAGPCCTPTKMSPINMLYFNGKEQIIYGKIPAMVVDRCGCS
Assay: ELISA, myostatin coated, periprep Fab titrated, anti-human-kappa-AP
Quantity Name: binding result

C12 Fab with the Asn residue in CDRL3 replaced with serine (Fab, V domains shown, Periprep Fab) VH: QLQLQESGPGLVKPSETLSLTCTVSGFSLRKVGSSVSWIRQPPGKGLEWIGHIYWDDDKRLNPSLRNRVTISVDTSKNQFSLKLSSVTAADTAVYYCARRAITTVIGGGTFDLWGQGTLVTVSS VL: DIQMTQSPSSLSASVGDRVTITCSASSSISYMHWYQQKPGKAPKLLIYDTSKLARGVPSRFSGSGSGTDFTLTISSLQPEDFATYYCQQWYLSPLTFGGGTKVEIKR: binds
C12 Fab with the Asn residue in CDRL3 replaced with valine (Fab, V domains shown, Periprep Fab) VH: QLQLQESGPGLVKPSETLSLTCTVSGFSLRKVGSSVSWIRQPPGKGLEWIGHIYWDDDKRLNPSLRNRVTISVDTSKNQFSLKLSSVTAADTAVYYCARRAITTVIGGGTFDLWGQGTLVTVSS VL: DIQMTQSPSSLSASVGDRVTITCSASSSISYMHWYQQKPGKAPKLLIYDTSKLARGVPSRFSGSGSGTDFTLTISSLQPEDFATYYCQQWYLVPLTFGGGTKVEIKR: binds
C12 Fab with the Asn residue in CDRL3 replaced with tyrosine (Fab, V domains shown, Periprep Fab) VH: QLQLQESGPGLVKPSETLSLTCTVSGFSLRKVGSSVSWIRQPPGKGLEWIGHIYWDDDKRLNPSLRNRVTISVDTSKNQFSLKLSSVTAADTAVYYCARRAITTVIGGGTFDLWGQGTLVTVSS VL: DIQMTQSPSSLSASVGDRVTITCSASSSISYMHWYQQKPGKAPKLLIYDTSKLARGVPSRFSGSGSGTDFTLTISSLQPEDFATYYCQQWYLYPLTFGGGTKVEIKR: binds
